Below, each entry is listed alongside its reported pKi.
ASSAYED_SYSTEM: 5-hydroxytryptamine receptor 1A (Homo sapiens)
Sequence (P08908 whole entry): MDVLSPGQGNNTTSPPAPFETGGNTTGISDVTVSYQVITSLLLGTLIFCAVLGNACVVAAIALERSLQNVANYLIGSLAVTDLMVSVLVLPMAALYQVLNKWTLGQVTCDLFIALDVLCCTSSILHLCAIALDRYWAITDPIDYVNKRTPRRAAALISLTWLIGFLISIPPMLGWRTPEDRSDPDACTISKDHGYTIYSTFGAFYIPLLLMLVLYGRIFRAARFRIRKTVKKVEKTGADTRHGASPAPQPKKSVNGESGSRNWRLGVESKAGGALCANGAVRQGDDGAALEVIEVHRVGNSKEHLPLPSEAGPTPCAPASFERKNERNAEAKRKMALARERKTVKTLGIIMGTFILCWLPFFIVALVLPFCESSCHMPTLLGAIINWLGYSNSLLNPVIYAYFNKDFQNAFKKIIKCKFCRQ
pKi: −log10 of the molar value.
ENDPOINT: pKi

> print(dat)
                                   compound  result.operator  numeric.result
1  C=CCN1CCc2cc(O)c(O)cc2C(c2ccccc2)C1 (stereo unspecified)                =            5.68
2                 C#CCN(C)[C@H](C)Cc1ccccc1                <            5.00
3          CCN(CC)CCNC(=O)c1cc(Cl)c(N)cc1OC                <            5.00
4        Oc1cc2c(cc1O)[C@@H](c1ccccc1)CNCC2                =            5.51
5  C=CCN1CCc2c(cc(O)c(O)c2Cl)C(c2ccccc2)C1 (racemic)                =            5.75
6          CN1Cc2c(N)cccc2[C@H](c2ccccc2)C1                =            5.93
